Catalogue of MIC readings, one per entry.
Tested on: Streptococcus mutans UA 159
method-summary: MIC and MBC, broth dilution
Type: cell-based
Hi! Could you send only the number? It should be in µM, unit omitted.

Sample records with MIC:
CC(C)=CCC/C(C)=C/CC/C(C)=C/CO    125
CC(=O)O[C@H]1C(=O)c2c(O)cc(O)cc2O[C@@H]1c1ccccc1 [Pinobanksin-3-acetate]    500
O=C1C[C@@H](c2ccccc2)Oc2cc(O)cc(O)c21    250

Continue with the next molecule.
Identify the reported MIC for the following entry. O=c1cc(-c2ccccc2)oc2cc(O)c(O)c(O)c12
500

* * *

System: Streptococcus mutans GS-5
method-summary: MIC and MBC, broth dilution
Type: cell-based
Catalogue of molecules with associated MBC

The following molecules have reported results that may help.
COc1cc(O)c2c(c1)O[C@H](c1ccc(O)cc1)CC2=O [Sakuranetin]    >500 µM
CC(=O)O[C@H]1C(=O)c2c(O)cc(O)cc2O[C@@H]1c1ccccc1 [Pinobanksin-3-acetate]    >500 µM
O=c1cc(-c2ccccc2)oc2cc(O)c(O)c(O)c12 [Baicalein]    >500 µM

Return MBC (reported value) for this molecule: CC(C)=CCC/C(C)=C/CC/C(C)=C/CO [tt-Farnesol]
500 µM

// fetch MBC given entry O=C1C[C@@H](c2ccccc2)Oc2cc(O)cc(O)c21 [Pinocembrin]
>500 µM

* * *

tested-target: GTF D (Streptococcus mutans serotype c, UniProt P49331)
Sequence (P49331 whole entry): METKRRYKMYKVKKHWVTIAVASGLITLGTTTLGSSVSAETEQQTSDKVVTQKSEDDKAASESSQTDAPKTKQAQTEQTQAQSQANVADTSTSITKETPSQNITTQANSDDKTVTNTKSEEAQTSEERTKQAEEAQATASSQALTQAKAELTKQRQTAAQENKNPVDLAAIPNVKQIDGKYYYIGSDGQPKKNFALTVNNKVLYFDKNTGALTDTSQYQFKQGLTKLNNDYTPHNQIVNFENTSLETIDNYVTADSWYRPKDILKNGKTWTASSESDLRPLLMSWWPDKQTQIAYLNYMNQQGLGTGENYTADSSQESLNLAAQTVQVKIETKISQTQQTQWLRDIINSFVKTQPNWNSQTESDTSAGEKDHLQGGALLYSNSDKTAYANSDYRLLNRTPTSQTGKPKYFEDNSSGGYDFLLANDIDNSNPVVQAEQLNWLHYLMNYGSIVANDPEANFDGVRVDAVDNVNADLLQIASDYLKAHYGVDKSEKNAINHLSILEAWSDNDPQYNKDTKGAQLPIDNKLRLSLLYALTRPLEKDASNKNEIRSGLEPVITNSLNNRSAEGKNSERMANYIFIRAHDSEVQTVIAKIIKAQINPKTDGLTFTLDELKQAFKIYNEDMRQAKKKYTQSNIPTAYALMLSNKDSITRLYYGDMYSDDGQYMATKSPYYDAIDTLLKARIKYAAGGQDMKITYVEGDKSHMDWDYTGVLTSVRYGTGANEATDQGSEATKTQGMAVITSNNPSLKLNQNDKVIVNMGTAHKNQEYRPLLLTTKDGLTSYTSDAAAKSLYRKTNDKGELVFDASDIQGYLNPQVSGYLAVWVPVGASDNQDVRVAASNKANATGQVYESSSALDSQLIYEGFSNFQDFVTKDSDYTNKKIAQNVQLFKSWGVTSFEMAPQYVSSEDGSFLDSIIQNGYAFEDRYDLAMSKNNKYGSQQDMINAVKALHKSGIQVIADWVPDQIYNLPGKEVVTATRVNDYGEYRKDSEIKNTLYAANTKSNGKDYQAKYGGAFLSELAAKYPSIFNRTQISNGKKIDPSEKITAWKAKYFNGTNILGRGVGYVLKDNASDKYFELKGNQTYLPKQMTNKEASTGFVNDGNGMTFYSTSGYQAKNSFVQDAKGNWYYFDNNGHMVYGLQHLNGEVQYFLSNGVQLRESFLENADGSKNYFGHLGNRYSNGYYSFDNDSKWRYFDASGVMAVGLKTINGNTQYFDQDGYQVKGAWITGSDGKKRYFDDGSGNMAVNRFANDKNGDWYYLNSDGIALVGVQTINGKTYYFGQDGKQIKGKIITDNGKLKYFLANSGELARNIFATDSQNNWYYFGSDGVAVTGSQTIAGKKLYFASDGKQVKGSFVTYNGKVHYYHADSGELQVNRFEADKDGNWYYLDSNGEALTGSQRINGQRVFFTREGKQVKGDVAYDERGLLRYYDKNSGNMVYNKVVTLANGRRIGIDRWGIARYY
recorded-metric: IC50

Identify IC50 associated with the compound O=c1cc(-c2ccc(O)cc2)oc2cc(O)cc(O)c12
> 1000 µM

* * *

tested-target: GTF Ss (Streptococcus sanguinis, UniProt A3CLJ9)
recorded-metric: IC50

Recall the reported IC50 of O=c1cc(-c2ccc(O)cc2)oc2cc(O)cc(O)c12 on GTF Ss (Streptococcus sanguinis, UniProt A3CLJ9) and write it down.
> 1 mM

The measured values listed here are drawn from patent US20040057908A1.
